measuredTarget: T1, Ax1 protein, extracellular domain (human, UniProt P30530 26-451)
T1 construct: extracellular domain; also called Axl; Ark
T1 sequence (looked up): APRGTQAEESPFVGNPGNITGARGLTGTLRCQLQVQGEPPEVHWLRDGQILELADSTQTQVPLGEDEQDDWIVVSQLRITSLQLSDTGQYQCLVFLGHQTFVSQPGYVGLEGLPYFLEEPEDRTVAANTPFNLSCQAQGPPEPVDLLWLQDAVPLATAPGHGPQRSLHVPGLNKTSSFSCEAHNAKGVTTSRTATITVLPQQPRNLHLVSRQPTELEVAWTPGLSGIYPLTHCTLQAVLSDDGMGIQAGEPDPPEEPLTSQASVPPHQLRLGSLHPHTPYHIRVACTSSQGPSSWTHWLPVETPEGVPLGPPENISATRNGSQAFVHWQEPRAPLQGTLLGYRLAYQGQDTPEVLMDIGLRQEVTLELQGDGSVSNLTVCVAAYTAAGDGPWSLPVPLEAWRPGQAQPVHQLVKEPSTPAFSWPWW
experimentalDetails: ELISA, mutant diluted 1:3
Rule: Affinity ELISA CPE mutant ratio (1:3, pH 6.0/7.4) of 3 or more gives Yes; anything lower gives No.

// query Hi, just wondering whether LC-A051I (antibody, V domains shown, CPE single point mutant) VH: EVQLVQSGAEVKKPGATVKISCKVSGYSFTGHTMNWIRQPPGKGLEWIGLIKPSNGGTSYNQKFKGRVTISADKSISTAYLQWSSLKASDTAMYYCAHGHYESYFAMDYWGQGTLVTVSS VL: DIQMTQSPSSLSASVGDRVTITCKASQDVSSAVAWYQQKPGQAPRLLIYWISTRHTGVPSRFSGSGSGTEFTLTISSLQPDDFATYYCQEHFSTPLTFGQGTKVEIK shows Affinity ELISA CPE mutant ratio (1:3, pH 6.0/7.4) of 3 or higher.
// result No

// query Hi, just wondering whether LC-F092S (antibody, V domains shown, CPE single point mutant) VH: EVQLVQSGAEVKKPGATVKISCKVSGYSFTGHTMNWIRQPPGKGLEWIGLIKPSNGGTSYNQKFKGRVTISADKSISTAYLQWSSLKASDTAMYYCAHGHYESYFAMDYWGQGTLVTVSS VL: DIQMTQSPSSLSASVGDRVTITCKASQDVSSAVAWYQQKPGQAPRLLIYWASTRHTGVPSRFSGSGSGTEFTLTISSLQPDDFATYYCQEHSSTPLTFGQGTKVEIK shows Affinity ELISA CPE mutant ratio (1:3, pH 6.0/7.4) of 3 or higher.
// result Yes

// query Hi, just wondering whether LC-H091C (antibody, V domains shown, CPE single point mutant) VH: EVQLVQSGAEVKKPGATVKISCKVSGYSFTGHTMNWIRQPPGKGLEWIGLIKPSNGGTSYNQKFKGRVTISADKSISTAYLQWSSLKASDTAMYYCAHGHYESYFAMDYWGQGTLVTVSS VL: DIQMTQSPSSLSASVGDRVTITCKASQDVSSAVAWYQQKPGQAPRLLIYWASTRHTGVPSRFSGSGSGTEFTLTISSLQPDDFATYYCQECFSTPLTFGQGTKVEIK shows Affinity ELISA CPE mutant ratio (1:3, pH 6.0/7.4) of 3 or higher.
// result Yes

// query Hi, just wondering whether HC-H100R (antibody, V domains shown, CPE single point mutant) VH: EVQLVQSGAEVKKPGATVKISCKVSGYSFTGHTMNWIRQPPGKGLEWIGLIKPSNGGTSYNQKFKGRVTISADKSISTAYLQWSSLKASDTAMYYCAHGRYESYFAMDYWGQGTLVTVSS VL: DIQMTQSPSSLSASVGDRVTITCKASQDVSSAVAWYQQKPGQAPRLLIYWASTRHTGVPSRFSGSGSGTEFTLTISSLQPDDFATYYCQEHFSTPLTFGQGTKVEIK shows Affinity ELISA CPE mutant ratio (1:3, pH 6.0/7.4) of 3 or higher.
// result No

// query Hi, just wondering whether LC-A032M (antibody, V domains shown, CPE single point mutant) VH: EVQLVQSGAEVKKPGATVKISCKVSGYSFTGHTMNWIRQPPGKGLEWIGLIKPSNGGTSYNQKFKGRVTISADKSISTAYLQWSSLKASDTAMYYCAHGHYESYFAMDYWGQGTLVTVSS VL: DIQMTQSPSSLSASVGDRVTITCKASQDVSSMVAWYQQKPGQAPRLLIYWASTRHTGVPSRFSGSGSGTEFTLTISSLQPDDFATYYCQEHFSTPLTFGQGTKVEIK shows Affinity ELISA CPE mutant ratio (1:3, pH 6.0/7.4) of 3 or higher.
// result Yes

// query Hi, just wondering whether HC-B102H (antibody, V domains shown, CPE single point mutant; printed B102, read as E102 (other rows print HC-E102x)) VH: EVQLVQSGAEVKKPGATVKISCKVSGYSFTGHTMNWIRQPPGKGLEWIGLIKPSNGGTSYNQKFKGRVTISADKSISTAYLQWSSLKASDTAMYYCAHGHYHSYFAMDYWGQGTLVTVSS VL: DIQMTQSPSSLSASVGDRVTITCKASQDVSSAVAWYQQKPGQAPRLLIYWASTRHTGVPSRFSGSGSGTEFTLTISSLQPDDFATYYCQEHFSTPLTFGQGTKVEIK shows Affinity ELISA CPE mutant ratio (1:3, pH 6.0/7.4) of 3 or higher.
// result No

// query Hi, just wondering whether HC-N035I (antibody, V domains shown, CPE single point mutant) VH: EVQLVQSGAEVKKPGATVKISCKVSGYSFTGHTMIWIRQPPGKGLEWIGLIKPSNGGTSYNQKFKGRVTISADKSISTAYLQWSSLKASDTAMYYCAHGHYESYFAMDYWGQGTLVTVSS VL: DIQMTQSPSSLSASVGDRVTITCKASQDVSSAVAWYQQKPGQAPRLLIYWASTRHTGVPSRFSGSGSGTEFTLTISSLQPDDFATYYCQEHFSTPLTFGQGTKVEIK shows Affinity ELISA CPE mutant ratio (1:3, pH 6.0/7.4) of 3 or higher.
// result No

// query Hi, just wondering whether LC-P095S (antibody, V domains shown, CPE single point mutant) VH: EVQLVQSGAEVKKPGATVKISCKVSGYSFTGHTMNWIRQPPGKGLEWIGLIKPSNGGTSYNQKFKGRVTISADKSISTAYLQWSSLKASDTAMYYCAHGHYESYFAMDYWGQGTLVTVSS VL: DIQMTQSPSSLSASVGDRVTITCKASQDVSSAVAWYQQKPGQAPRLLIYWASTRHTGVPSRFSGSGSGTEFTLTISSLQPDDFATYYCQEHFSTSLTFGQGTKVEIK shows Affinity ELISA CPE mutant ratio (1:3, pH 6.0/7.4) of 3 or higher.
// result No

// query Hi, just wondering whether HC-F105N (antibody, V domains shown, CPE single point mutant) VH: EVQLVQSGAEVKKPGATVKISCKVSGYSFTGHTMNWIRQPPGKGLEWIGLIKPSNGGTSYNQKFKGRVTISADKSISTAYLQWSSLKASDTAMYYCAHGHYESYNAMDYWGQGTLVTVSS VL: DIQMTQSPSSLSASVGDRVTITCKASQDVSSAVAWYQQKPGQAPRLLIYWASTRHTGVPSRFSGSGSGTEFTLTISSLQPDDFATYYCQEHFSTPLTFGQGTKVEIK shows Affinity ELISA CPE mutant ratio (1:3, pH 6.0/7.4) of 3 or higher.
// result No

// query Hi, just wondering whether HC-W110A (antibody, V domains shown) VH: EVQLVQSGAEVKKPGATVKISCKVSGYSFTGHTMNWIRQPPGKGLEWIGLIKPSNGGTSYNQKFKGRVTISADKSISTAYLQWSSLKASDTAMYYCAHGHYESYFAMDYAGQGTLVTVSS VL: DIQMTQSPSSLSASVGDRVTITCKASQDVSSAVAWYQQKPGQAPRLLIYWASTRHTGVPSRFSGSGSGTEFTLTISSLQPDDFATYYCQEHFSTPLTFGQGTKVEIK shows Affinity ELISA CPE mutant ratio (1:3, pH 6.0/7.4) of 3 or higher.
// result Yes
